Target: PP5 (Homo sapiens)
Sequence (P53041 1-499): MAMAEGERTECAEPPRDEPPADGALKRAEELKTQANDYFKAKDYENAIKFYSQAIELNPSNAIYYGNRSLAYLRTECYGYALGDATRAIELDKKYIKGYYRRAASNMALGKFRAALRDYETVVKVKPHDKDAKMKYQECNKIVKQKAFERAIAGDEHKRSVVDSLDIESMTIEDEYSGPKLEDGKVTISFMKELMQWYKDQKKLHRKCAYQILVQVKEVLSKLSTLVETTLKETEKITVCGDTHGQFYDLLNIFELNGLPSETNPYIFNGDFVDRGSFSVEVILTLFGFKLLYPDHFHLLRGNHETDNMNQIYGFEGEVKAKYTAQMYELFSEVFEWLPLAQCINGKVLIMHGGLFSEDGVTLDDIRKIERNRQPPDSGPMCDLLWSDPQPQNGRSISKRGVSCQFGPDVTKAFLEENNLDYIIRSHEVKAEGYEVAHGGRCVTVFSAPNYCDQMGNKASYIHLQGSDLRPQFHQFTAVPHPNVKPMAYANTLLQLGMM
Assay: Phosphatase inhibition assay (pNPP)
Would you mind telling me the reported IC50 of each entry?

Examples from the recorded data:
O=C(Nc1ccc2nc(C(F)(F)F)[nH]c2c1)C(c1ccccc1)S(=O)(=O)O (centres unmarked): > 200 µM
O=C(Nc1cccc(OCc2ccccc2)c1)C(c1ccccc1)S(=O)(=O)O (centres unmarked): > 200 µM
Cc1c(Br)cc(NC(=O)CS(=O)(=O)O)cc1Br: > 100 µM
O=C(C(c1ccccc1)S(=O)(=O)O)N1CCC(c2ccc(Cl)c(Cl)c2)CC1 (centres unmarked): > 200 µM
O=C(CS(=O)(=O)O)Nc1cnc2ccccc2c1: > 100 µM

Give one value of IC50 per listed compound.
1. O=C(CS(=O)(=O)O)Nc1nc2ccc([N+](=O)[O-])cc2s1
2. O=C(Nc1nc2ccccc2s1)C(c1ccccc1)S(=O)(=O)O (centres unmarked)
3. O=C(C(c1ccccc1)S(=O)(=O)O)N1CCC(Cc2ccccc2)CC1 (centres unmarked)

Given back:
["> 100 µM", "> 200 µM", "> 200 µM"]

====

Target: mPTPA (Mycobacterium tuberculosis, UniProt P9WIA1)
Sequence (P9WIA1 whole entry): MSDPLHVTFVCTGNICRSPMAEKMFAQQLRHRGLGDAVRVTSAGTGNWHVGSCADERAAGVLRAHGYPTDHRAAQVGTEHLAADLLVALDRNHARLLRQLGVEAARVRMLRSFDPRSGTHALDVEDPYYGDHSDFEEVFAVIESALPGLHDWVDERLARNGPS
Assay: biochemical
Conditions: Biochemical potency against target (Ic50, nM) mPTPA
MEASUREMENT KIND: IC50 (nM)
Numbers only, in nM.

Asked: Could you tell me which IC50 is on file for Cc1c(Br)cc(NC(=O)CS(=O)(=O)O)cc1Br ?
Given back: 160

====

Would you mind telling me the reported pIC50 of each entry?
Molecular target: UniProt Q12923
Sequence (Q12923 whole entry): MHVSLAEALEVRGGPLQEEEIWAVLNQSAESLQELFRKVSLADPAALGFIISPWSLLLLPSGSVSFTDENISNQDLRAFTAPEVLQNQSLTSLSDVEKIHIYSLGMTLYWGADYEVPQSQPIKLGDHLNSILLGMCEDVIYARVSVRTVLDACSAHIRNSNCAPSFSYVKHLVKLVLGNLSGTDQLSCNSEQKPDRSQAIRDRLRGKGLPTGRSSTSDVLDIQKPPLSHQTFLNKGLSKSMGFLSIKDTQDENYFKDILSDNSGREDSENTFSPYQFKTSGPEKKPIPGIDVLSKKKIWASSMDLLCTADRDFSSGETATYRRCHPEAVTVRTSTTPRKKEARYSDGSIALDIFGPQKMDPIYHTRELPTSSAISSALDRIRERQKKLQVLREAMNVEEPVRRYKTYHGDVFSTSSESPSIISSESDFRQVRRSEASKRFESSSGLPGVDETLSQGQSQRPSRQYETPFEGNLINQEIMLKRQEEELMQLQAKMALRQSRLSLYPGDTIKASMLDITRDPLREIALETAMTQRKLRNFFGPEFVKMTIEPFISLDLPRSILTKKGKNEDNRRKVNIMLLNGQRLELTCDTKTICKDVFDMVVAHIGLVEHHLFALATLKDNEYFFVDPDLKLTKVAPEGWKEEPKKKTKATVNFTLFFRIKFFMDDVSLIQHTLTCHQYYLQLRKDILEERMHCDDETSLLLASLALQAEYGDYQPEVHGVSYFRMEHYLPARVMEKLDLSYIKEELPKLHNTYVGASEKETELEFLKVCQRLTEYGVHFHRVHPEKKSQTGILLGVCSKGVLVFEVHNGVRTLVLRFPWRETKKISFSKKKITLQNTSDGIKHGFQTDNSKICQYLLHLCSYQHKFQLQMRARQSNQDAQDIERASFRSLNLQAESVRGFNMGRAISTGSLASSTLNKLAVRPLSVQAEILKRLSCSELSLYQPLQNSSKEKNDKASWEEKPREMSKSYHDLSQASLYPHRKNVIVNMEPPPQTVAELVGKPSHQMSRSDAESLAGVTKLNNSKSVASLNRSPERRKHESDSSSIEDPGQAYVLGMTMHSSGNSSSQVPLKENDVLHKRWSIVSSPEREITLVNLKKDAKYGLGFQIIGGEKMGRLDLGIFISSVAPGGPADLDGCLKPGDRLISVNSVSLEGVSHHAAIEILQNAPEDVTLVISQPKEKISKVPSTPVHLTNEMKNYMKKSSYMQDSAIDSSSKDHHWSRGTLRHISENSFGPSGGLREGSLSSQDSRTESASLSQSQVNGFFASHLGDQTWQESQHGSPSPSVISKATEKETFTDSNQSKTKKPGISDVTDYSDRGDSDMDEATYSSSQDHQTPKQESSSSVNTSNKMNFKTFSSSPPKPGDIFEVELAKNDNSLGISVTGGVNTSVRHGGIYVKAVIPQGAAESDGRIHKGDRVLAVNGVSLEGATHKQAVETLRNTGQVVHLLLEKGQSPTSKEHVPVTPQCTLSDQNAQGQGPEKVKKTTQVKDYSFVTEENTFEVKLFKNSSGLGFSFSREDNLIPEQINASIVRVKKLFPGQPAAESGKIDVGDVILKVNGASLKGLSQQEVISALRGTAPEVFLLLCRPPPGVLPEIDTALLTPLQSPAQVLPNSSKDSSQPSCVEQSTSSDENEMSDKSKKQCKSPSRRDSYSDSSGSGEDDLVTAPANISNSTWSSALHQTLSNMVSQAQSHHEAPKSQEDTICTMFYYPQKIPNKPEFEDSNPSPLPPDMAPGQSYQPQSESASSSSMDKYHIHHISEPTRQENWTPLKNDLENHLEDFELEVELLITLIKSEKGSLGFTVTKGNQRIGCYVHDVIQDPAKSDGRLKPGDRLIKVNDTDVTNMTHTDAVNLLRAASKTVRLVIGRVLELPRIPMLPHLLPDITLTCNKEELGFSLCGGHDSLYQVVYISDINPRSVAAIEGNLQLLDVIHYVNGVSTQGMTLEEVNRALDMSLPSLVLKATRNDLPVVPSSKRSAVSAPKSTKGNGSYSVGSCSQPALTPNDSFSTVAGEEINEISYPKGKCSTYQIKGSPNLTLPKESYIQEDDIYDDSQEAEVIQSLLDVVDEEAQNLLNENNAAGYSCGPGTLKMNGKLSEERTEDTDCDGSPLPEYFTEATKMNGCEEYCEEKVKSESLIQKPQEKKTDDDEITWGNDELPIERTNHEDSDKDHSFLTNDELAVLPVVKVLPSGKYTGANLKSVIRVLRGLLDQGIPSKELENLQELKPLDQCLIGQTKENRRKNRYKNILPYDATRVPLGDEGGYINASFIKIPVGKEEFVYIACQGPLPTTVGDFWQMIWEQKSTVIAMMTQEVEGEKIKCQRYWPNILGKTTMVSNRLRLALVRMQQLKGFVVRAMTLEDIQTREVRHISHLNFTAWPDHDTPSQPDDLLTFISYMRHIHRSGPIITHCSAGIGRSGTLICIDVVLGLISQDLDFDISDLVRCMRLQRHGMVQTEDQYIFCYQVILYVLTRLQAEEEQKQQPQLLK
Experiment: PTP inhibition assay (pNPP)
Assay type: biochemical
Conditions: IC50 FAP1
Numbers only, as −log10 of the molar value.

Give one value of pIC50 per listed molecule.
1. O=C(Nc1ccc(OCc2ccccc2)c(Cl)c1)C(=O)Nc1ccccc1NC(=O)C(c1ccccc1)S(=O)(=O)O (stereo not drawn) [Compound L319-21-M50]
2. O=C(Nc1ccc(-c2ccccc2)cc1)C(c1ccccc1)S(=O)(=O)O (stereo not drawn) [Compound L319N08]

Given back:
4.41
4.15

====

Molecular target: Meg2 (Homo sapiens, UniProt P43378)
Sequence (P43378 1-593): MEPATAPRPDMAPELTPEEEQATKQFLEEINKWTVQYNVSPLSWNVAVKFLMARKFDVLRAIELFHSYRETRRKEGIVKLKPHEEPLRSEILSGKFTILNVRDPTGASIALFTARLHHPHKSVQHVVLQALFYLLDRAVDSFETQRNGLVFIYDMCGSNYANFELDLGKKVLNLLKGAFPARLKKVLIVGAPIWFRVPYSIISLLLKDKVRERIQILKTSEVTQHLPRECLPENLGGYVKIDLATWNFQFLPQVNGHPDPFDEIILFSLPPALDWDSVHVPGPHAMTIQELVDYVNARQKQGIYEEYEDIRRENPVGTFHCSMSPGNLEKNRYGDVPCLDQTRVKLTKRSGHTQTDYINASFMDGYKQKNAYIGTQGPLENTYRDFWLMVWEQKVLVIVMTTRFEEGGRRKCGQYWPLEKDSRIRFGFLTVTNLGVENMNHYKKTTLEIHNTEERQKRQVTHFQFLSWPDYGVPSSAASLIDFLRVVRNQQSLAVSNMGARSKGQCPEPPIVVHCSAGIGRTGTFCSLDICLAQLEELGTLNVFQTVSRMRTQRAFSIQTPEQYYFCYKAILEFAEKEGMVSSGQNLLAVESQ
MEASUREMENT KIND: IC50

Examples from the recorded data:
O=C(CS(=O)(=O)O)Nc1cnc2ccccc2c1: > 100 µM
O=C(CS(=O)(=O)O)Nc1ccc2nc(C(F)(F)F)[nH]c2c1: > 100 µM
O=C(C(c1ccccc1)S(=O)(=O)O)N1CCCC2CCCCC21 (stereo not shown) [Compound L319N53]: > 200 µM

Continue with the next compound.
Asked: Could you tell me which IC50 is on file for O=C(Nc1cnc2ccccc2c1)C(c1ccccc1)S(=O)(=O)O (stereo not shown) [Compound L319M88] ?
Given back: > 200 µM
